# Tested target: T1, recombinant IL-3Rα ectodomain (Homo sapiens, UniProt P26951)
# T1 construct: Immobilisation of recombinant IL-3Rα ectodomain (Sino Biologicals) was done until 761 RU; purchased Sino Biologicals
# T1 sequence (P26951 19-305 limits assumed): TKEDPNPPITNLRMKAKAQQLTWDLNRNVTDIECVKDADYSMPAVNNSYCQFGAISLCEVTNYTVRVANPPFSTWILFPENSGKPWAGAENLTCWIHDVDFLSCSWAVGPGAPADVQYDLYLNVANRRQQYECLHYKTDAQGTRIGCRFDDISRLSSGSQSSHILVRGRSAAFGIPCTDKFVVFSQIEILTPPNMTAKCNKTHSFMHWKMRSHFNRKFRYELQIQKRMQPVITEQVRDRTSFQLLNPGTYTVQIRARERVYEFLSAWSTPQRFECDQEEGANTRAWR
# Assay: SPR (ProteOn) on recombinant IL-3Rα ectodomain
# Assay type: binding
Quantity: SPR - IL-3Ra ka (M⁻¹ s⁻¹)
Answers are plain numbers, in M⁻¹ s⁻¹.

Molecule	Readout number
55C05: CD123 building block, SEQ ID NO: 11 (protein) VHH: EVQLVESGGGLVPAGDSLRLSCVASGRSLNTYTMGWFRQAPGKECEFVAAINWNGVYRDYADSAKGRFTASRDNAMNTVFLQMNSLKPEDTAVYFCATATQGWDRHTEPSDFGSWGLGTQVTVSS	126000

Moving on to another molecule below.
get_value(item= 51D09: CD123 building block, SEQ ID NO: 10 (protein) VHH: EVQLVESGGGLVQPGGSLRLSCAASGSIFSGNTMGWYRQAPGKQRELVAAISSGGSTDYADSVKGRFTISRDNSKNTVYLQMNSLRPEDTAVYYCNAAILLYRLYGYEEGDYWGLGTLVTVSS , readout=SPR - IL-3Ra ka) returns 37800

These entries and their values trace back to patent US20220242958A1.
